# ASSAYED TARGET: T1, hPRLR.mmh (soluble monomeric human PRLR) (Homo sapiens, UniProt P16471)
# T1 construct: soluble monomeric (hPRLR.mmh); mmh (myc-myc-hexahistidine)
# T1 sequence (P16471 with tags, fused parts or gaps): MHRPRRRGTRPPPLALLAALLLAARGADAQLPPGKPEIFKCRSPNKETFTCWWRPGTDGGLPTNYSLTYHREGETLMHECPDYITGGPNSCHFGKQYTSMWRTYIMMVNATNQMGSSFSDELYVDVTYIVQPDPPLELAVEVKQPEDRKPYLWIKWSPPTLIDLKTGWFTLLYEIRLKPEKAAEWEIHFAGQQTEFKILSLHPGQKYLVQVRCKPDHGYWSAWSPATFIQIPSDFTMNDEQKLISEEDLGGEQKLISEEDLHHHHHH
# ASSAY PROTOCOL: Surface plasmon resonance (Biacore T200), mAb-capture format
# Type: binding
# DETAILS: 37° C., antibody-capture format, analyte hPRLR.mmh
# Description: Antibodies, expressed as human IgG1 Fc “[…]” designations), were captured onto an anti-human Fc sensor surface (mAb-capture format), and soluble monomeric (hPRLR.mmh; SEQ ID NO:401, or macaca fascicularis (mf) PRLR.mmh; SEQ ID NO:403) or dimeric (hPRLR.mFc; SEQ ID NO:402) PRLR protein was injected over the sensor surface. Measurements were conducted on a T200 Biacore instrument. […]
pKd: −log10 of the molar value.
// values below are reported pKd

MOLECULE	pKd
H1H6960N: human IgG1 Fc form of H2M6960N; anti-PRLR; HCVR/LCVR SEQ ID NOs 322/330 (antibody, V domains shown, human IgG1 Fc) VH: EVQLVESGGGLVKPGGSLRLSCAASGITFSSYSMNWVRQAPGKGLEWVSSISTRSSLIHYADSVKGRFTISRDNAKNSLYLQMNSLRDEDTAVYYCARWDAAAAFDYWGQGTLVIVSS VL: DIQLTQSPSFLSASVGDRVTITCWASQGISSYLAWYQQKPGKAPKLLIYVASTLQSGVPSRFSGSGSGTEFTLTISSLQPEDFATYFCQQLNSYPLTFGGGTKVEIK	7.79
H1H6762P: anti-PRLR antibody, human IgG1 Fc; HCVR/LCVR SEQ ID NOs 2/10 (antibody, V domains shown, human IgG1 Fc) VH: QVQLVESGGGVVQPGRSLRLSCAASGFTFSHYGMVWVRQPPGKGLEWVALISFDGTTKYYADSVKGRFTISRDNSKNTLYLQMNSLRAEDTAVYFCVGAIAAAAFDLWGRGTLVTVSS VL: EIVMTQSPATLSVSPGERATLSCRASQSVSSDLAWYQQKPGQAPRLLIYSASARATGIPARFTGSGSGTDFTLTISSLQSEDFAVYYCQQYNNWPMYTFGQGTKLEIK	9.32
H1H6792P: anti-PRLR antibody, human IgG1 Fc; HCVR/LCVR SEQ ID NOs 130/138 (antibody, V domains shown, human IgG1 Fc) VH: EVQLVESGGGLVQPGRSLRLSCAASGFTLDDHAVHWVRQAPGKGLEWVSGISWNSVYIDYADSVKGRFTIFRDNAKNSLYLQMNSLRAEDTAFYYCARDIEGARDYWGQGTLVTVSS VL: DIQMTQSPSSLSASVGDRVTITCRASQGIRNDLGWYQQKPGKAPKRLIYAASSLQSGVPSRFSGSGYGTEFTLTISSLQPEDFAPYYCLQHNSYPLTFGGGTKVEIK	8.28
H1H6967N: human IgG1 Fc form of H2M6967N; anti-PRLR; HCVR/LCVR SEQ ID NOs 354/362 (antibody, V domains shown, human IgG1 Fc) VH: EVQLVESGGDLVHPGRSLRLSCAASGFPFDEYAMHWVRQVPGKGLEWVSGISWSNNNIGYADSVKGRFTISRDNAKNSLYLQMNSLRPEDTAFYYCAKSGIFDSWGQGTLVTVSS VL: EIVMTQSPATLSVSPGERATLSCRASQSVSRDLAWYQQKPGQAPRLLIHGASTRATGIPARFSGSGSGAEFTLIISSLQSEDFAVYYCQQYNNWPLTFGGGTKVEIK	8.66
H1H6781P: anti-PRLR antibody, human IgG1 Fc; HCVR/LCVR SEQ ID NOs 50/58 (antibody, V domains shown, human IgG1 Fc) VH: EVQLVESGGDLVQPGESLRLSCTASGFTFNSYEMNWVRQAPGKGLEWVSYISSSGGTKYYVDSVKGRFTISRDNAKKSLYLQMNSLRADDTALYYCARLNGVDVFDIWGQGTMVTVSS VL: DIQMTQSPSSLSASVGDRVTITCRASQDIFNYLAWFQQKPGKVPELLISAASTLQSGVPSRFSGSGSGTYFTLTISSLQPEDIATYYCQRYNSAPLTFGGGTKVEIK	9.04
H1H6774P: anti-PRLR antibody, human IgG1 Fc; HCVR/LCVR SEQ ID NOs 34/42 (antibody, V domains shown, human IgG1 Fc) VH: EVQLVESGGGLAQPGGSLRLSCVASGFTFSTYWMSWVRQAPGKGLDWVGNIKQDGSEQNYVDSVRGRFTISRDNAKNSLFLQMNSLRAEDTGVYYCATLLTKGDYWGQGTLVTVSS VL: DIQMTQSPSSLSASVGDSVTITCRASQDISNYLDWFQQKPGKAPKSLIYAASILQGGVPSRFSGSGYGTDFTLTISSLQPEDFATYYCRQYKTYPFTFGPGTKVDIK	8.53
H1H6797P: anti-PRLR antibody, human IgG1 Fc; HCVR/LCVR SEQ ID NOs 178/186 (antibody, V domains shown, human IgG1 Fc) VH: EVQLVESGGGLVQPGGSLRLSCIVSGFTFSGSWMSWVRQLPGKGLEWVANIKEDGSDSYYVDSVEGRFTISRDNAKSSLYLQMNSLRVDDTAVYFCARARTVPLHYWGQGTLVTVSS VL: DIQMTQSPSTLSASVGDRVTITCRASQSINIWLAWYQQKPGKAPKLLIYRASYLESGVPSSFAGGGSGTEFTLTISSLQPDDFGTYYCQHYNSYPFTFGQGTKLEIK	8.20
H1H6966N: human IgG1 Fc form of H2M6966N; anti-PRLR; HCVR/LCVR SEQ ID NOs 338/346 (antibody, V domains shown, human IgG1 Fc) VH: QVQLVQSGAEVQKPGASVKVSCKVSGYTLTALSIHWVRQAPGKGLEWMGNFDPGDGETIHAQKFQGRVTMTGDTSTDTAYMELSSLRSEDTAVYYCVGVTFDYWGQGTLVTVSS VL: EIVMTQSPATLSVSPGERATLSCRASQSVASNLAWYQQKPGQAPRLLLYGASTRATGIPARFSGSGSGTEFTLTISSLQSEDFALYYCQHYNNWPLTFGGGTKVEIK	9.22

Data credit: patent US9688764B2
